Target: T1, monkey TIM-3 on CHOK1 stable cell line (CHOK1-cTIM-3) (monkey)
T1 chain: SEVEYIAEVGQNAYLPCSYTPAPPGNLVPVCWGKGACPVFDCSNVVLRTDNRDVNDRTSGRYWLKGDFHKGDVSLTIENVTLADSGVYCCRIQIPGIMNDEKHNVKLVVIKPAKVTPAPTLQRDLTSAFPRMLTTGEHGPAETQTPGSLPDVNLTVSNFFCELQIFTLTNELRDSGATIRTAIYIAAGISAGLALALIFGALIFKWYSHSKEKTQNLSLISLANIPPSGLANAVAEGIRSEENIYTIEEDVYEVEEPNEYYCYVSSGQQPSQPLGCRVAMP
Assay: FACS, CHOK1-cTIM-3 cells, 1.6 nM antibody
Mean fluorescence intensity values for the binders below.
A bare number is all that is needed in reply.

Answered cases to consult:
binder	Mean fluorescence intensity
34B6D8 fully human TIM-3 antibody (human IgG4, kappa) (antibody, V domains shown) VH: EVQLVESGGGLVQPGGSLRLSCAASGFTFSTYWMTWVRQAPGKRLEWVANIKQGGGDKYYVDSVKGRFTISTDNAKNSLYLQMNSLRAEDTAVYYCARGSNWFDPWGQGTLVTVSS VL: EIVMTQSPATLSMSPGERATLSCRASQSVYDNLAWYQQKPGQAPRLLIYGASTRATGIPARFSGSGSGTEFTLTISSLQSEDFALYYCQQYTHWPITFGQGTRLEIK	266
7A4F10 fully human TIM-3 antibody (human IgG4, kappa) (antibody, V domains shown) VH: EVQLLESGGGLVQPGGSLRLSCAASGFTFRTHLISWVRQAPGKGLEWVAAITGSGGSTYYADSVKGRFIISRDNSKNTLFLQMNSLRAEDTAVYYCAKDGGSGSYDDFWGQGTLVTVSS VL: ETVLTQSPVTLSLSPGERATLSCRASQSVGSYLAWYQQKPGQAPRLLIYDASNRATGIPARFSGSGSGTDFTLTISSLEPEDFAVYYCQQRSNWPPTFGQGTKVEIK	177

We next turn to a different binder, shown below.
Would you mind telling me what Mean fluorescence intensity value was observed for 39E5H1 fully human TIM-3 antibody (human IgG4, kappa) (antibody, V domains shown) VH: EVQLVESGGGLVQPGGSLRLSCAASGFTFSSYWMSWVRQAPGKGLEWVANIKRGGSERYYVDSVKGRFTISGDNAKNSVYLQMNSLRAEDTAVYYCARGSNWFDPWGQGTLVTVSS VL: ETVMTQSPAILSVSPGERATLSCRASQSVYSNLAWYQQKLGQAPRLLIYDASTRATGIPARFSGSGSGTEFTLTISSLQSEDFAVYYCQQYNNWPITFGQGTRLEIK ?
315
